These entries and their values trace back to patent US20240116985A1.

procedure.details: CHI Log D procedure
Assay type: physicochemical
condition.notes: pH 7.4
CHI Log D vs 2: at or above is Criterion met, below is Criterion not met.

Query :: Check this compound for CHI Log D at or above 2: CC(=O)N1CCC[C@]12CC=CCCCC1(CCCC=CCCCOC(=O)N3CC[C@@](C(=O)N[C@@H](Cc4ccsc4)C(=O)N[C@@H](Cc4csc5ccccc45)C(=O)N[C@@H](CCC(N)=O)C(N)=O)(C3)NC(=O)[C@H](CCC(N)=O)NC(=O)[C@H](Cc3ccccc3)NC(=O)[C@H](C)NC(=O)[C@H](C)NC(=O)[C@H](CC(=O)O)NC(=O)[C@H](CC(=O)O)NC1=O)NC(=O)[C@H](CC(C)(C)C)NC(=O)[C@H](CC(=O)O)NC2=O (stereo partly drawn) [I-764]
Result :: Criterion met

Query :: Test whether the compound CC(=O)N[C@@H](Cc1ccccc1)C(=O)N[C@@H](CC(=O)O)C(=O)N[C@@H](C)C(=O)N[C@]1(C)CCCCCCC=CCOC(=O)N2CC[C@@](C(=O)N[C@@H](Cc3ccccc3)C(=O)N[C@@H](Cc3c[nH]c4ccccc34)C(=O)N[C@@H](CCC(N)=O)C(N)=O)(C2)NC(=O)[C@H](C(C)C)NC(=O)[C@H](Cc2ccc(C(N)=O)cc2)NC(=O)[C@H](C)NC(=O)[C@H](C)NC(=O)[C@H](CC(=O)O)NC(=O)[C@H](CC(=O)O)NC1=O [I-91] records CHI Log D of 2 or higher.
Result :: Criterion not met

Query :: # bool: CHI Log D of CC(=O)N1CCC[C@]12CC=CCCCC1(CCCC=CCCCCCC[C@@](C)(C(=O)N[C@@H](Cc3ccccc3)C(=O)N[C@@H](Cc3csc4ccccc34)C(=O)N[C@@H](CCC(N)=O)C(N)=O)NC(=O)[C@H](CC(N)=O)NC(=O)[C@H](Cc3ccccc3)NC(=O)[C@H](C)NC(=O)[C@H](C)NC(=O)[C@H](CCC(=O)O)NC(=O)[C@H](CCNS(C)(=O)=O)NC1=O)NC(=O)[C@H](C)NC(=O)[C@H](CC(=O)O)NC2=O (stereo partly drawn) [I-532] >= 2
Result :: Criterion met

Query :: Form field: CHI Log D at least 2? Entry: CCC[C@@H]1NC(=O)[C@H](CC(=O)O)NC(=O)[C@]2(CC=CCCCC3(CCCC=CCCCCCC[C@@](C)(C(=O)N[C@@H](Cc4ccccc4)C(=O)N[C@@H](Cc4csc5ccccc45)C(=O)N[C@@H](CCC(N)=O)C(N)=O)NC(=O)[C@H](CCC(N)=O)NC(=O)[C@H](Cc4ccccc4)NC(=O)[C@H](C)NC(=O)[C@H](C)NC(=O)[C@H](CCC(=O)O)NC(=O)[C@H](CC(=O)O)NC3=O)NC1=O)CCCN2C(C)=O (stereo partly drawn) [I-523]
Result :: Criterion met

Query :: Would you say CC(=O)N[C@@H](Cc1ccccc1)C(=O)N[C@@H](CC(=O)O)C(=O)N[C@@H](C)C(=O)N[C@]1(C)CCCCCCC=CCOC(=O)N2CC[C@@](C(=O)N[C@@H](Cc3ccccc3)C(=O)N[C@@H](Cc3c[nH]c4ccccc34)C(=O)N[C@@H](CCC(N)=O)C(N)=O)(C2)NC(=O)[C@H](C(C)C)NC(=O)[C@H](CC2CCCCC2)NC(=O)[C@H](C)NC(=O)[C@H](C)NC(=O)[C@H](CC(=O)O)NC(=O)[C@H](CC(=O)O)NC1=O (single isomer, unassigned) shows CHI Log D at minimum 2?
Result :: Criterion not met

Query :: Please indicate if the recorded CHI Log D for CC(=O)N1CCC[C@]12CC=CCCCC1(CCCC=CCOC(=O)N(C)CCC[C@@](C)(C(=O)N[C@@H](Cc3ccccc3)C(=O)N[C@@H](Cc3c[nH]c4ccccc34)C(=O)N[C@@H](CCC(N)=O)C(N)=O)NC(=O)[C@H](C(C)C)NC(=O)[C@H](Cc3ccccc3)NC(=O)[C@H](C)NC(=O)[C@H](C)NC(=O)[C@H](CC(=O)O)NC(=O)[C@H](CC(=O)O)NC1=O)NC(=O)[C@H](C)NC(=O)[C@H](CC(=O)O)NC2=O (stereo partly drawn) [I-54] meets or exceeds 2.
Result :: Criterion not met

Query :: Check the entry C=CC(=O)NC[C@H](NC(=O)[C@]1(C)CCCCCCC=CCCCC2(CCCC=CC[C@]3(CCCN3C(C)=O)C(=O)N[C@@H](CC(=O)O)C(=O)N[C@@H]([C@@H](C)CC)C(=O)N2)C(=O)N[C@@H](CC(=O)O)C(=O)N[C@@H](CC(=O)O)C(=O)N[C@@H](C)C(=O)N[C@@H](C)C(=O)N[C@@H](Cc2ccccc2)C(=O)N[C@@H](CCC(N)=O)C(=O)N1)C(=O)N[C@@H](Cc1csc2ccccc12)C(=O)N[C@@H](CCC(N)=O)C(N)=O (stereo partly drawn) [I-483] : does CHI Log D equal or exceed 2?
Result :: Criterion not met
